For each entry below, report its viability, T/C value.
test system: 313798-341-R-J2-PDC spheroids, viability; assay: Anticancer human tumor 313798-341-R-J2-PDC patient-derived cervical squamous cell carcinoma cell line growth inhibition [PI3K]; details: second compound 0.316 µM; first compound 0.00949 µM; stronger effect = lower value; spheroids with HUVEC and MSC

QUERY: Please report the measured viability, T/C for Cn1cnc2c(F)c(Nc3ccc(Br)cc3Cl)c(C(=O)NOCCO)cc21 + COc1c(OCCCN2CCOCC2)ccc2c3n(c(=NC(=O)c4cnc(N)nc4)nc12)CCN3 tested on 313798-341-R-J2-PDC spheroids, viability.
RESULT: 12.5%

QUERY: Retrieve viability, T/C on 313798-341-R-J2-PDC spheroids, viability; query Cn1cnc2c(F)c(Nc3ccc(Br)cc3Cl)c(C(=O)NOCCO)cc21 + CC(Nc1ncnc2nc[nH]c12)c1cc2cccc(Cl)c2c(=O)n1-c1ccccc1
RESULT: 87.2%

QUERY: GET viability, T/C where system = 313798-341-R-J2-PDC spheroids, viability and item = Cn1cnc2c(F)c(Nc3ccc(Br)cc3Cl)c(C(=O)NOCCO)cc21 + Cc1nc(NC(=O)N2CCCC2C(N)=O)sc1-c1ccnc(C(C)(C)C(F)(F)F)c1
RESULT: 109%

QUERY: Report value: viability, T/C, system: 313798-341-R-J2-PDC spheroids, viability, compound: Cn1cnc2c(F)c(Nc3ccc(Br)cc3Cl)c(C(=O)NOCCO)cc21 + CC(Nc1ccc2c(c1)OCCn1cc(N3C(=O)OCC3C(F)F)nc1-2)C(N)=O
RESULT: 57.9%

###

test system: 313798-341-R-J2-PDC spheroids, viability; experiment: Anticancer human tumor 313798-341-R-J2-PDC cell line growth inhibition [PI3K]; conditions: second compound 0.00316 µM; first compound 10 µM; stronger effect = lower value; spheroids with HUVEC and MSC;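 note: spheroids exposed to compounds for seven days; 100% = DMSO vehicle control viability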
measured parameter: viability, T/C (%)
Give the quantity in %, number only.

QUERY: Return reported viability, T/C for target or system 313798-341-R-J2-PDC spheroids, viability, item CC(C)NCC(C(=O)N1CCN(c2ncnc3c2C(C)CC3O)CC1)c1ccc(Cl)cc1 (stereo not given) + COc1c(OCCCN2CCOCC2)ccc2c3n(c(=NC(=O)c4cnc(N)nc4)nc12)CCN3 .
RESULT: 33

QUERY: Report the value of viability, T/C obtained on 313798-341-R-J2-PDC spheroids, viability for CC(Cn1ccc(-c2ccc(C#N)c(Cl)c2)n1)NC(=O)c1cc(C(C)O)[nH]n1 (stereo not given) + CC(Nc1ccc2c(c1)OCCn1cc(N3C(=O)OCC3C(F)F)nc1-2)C(N)=O .
RESULT: 99.8

QUERY: Give viability, T/C only, for Cn1nccc1Nc1nccc(-c2ccn(C(CO)c3ccc(Cl)c(F)c3)c(=O)c2)n1 (stereo not given) + CC(Nc1ccc2c(c1)OCCn1cc(N3C(=O)OCC3C(F)F)nc1-2)C(N)=O , using 313798-341-R-J2-PDC spheroids, viability data.
RESULT: 100

QUERY: Look up and report viability, T/C, with 313798-341-R-J2-PDC spheroids, viability as system, for C#Cc1c(F)ccc2cc(O)cc(-c3ncc4c(N5CC6CCC(C5)N6)nc(OCC56CCCN5CC(F)C6)nc4c3F)c12 (stereo not given) + CC(Nc1ccc2c(c1)OCCn1cc(N3C(=O)OCC3C(F)F)nc1-2)C(N)=O
RESULT: 99.3

QUERY: Give reported viability, T/C for C=CC(=O)N1CCN(c2nc(=O)n(-c3c(C)ccnc3C(C)C)c3nc(-c4c(O)cccc4F)c(F)cc23)C(C)C1 (stereo not given) + COc1c(OCCCN2CCOCC2)ccc2c3n(c(=NC(=O)c4cnc(N)nc4)nc12)CCN3 (313798-341-R-J2-PDC spheroids, viability)
RESULT: 106

QUERY: Tell me viability, T/C of C[C@@H](NC(=O)c1ncnc(N)c1Cl)c1ncc(C(=O)Nc2cc(C(F)(F)F)c(Cl)cn2)s1 + COc1c(OCCCN2CCOCC2)ccc2c3n(c(=NC(=O)c4cnc(N)nc4)nc12)CCN3 when tested on 313798-341-R-J2-PDC spheroids, viability.
RESULT: 111

QUERY: Lab note: record viability, T/C of C=CC(=O)N1CCN(c2nc(=O)n(-c3c(C)ccnc3C(C)C)c3nc(-c4c(O)cccc4F)c(F)cc23)C(C)C1 (stereo not given) + CC(Nc1ccc2c(c1)OCCn1cc(N3C(=O)OCC3C(F)F)nc1-2)C(N)=O tested on 313798-341-R-J2-PDC spheroids, viability.
RESULT: 98.7

QUERY: # assay system 313798-341-R-J2-PDC spheroids, viability: give viability, T/C of CC1(C)CCC(CN2CCN(c3ccc(C(=O)NS(=O)(=O)c4ccc(NCC5CCOCC5)c([N+](=O)[O-])c4)c(Oc4cnc5[nH]ccc5c4)c3)CC2)=C(c2ccc(Cl)cc2)C1 + COc1c(OCCCN2CCOCC2)ccc2c3n(c(=NC(=O)c4cnc(N)nc4)nc12)CCN3
RESULT: 102

QUERY: GET viability, T/C where system = 313798-341-R-J2-PDC spheroids, viability and item = CCCS(=O)(=O)Nc1ccc(F)c(C(=O)c2c[nH]c3ncc(-c4ccc(Cl)cc4)cc23)c1F + COc1c(OCCCN2CCOCC2)ccc2c3n(c(=NC(=O)c4cnc(N)nc4)nc12)CCN3
RESULT: 15.7

QUERY: Report viability, T/C on 313798-341-R-J2-PDC spheroids, viability for this entry: Cn1ncc(Cl)c1-c1cc(C(=O)NC(CN)Cc2cccc(F)c2)sc1Cl (stereo not given) + COc1c(OCCCN2CCOCC2)ccc2c3n(c(=NC(=O)c4cnc(N)nc4)nc12)CCN3
RESULT: 35.5

The measured values listed here are drawn from PubChem BioAssay AID1963982.
